Every entry's value here was drawn from patent US20170001970A1.

target: LSD1 (Homo sapiens, UniProt O60341); construct: purchased Cayman Chemical Company 700120; assay: LSD1 histone demethylase assay (LSD1 Inhibitor Screening Assay Kit, Cayman); assay type: biochemical
MEASURED PARAMETER: IC50 (µM)
Output spec: scalar in µM, unitless text.

Consider CN1CCN(S(=O)(=O)c2cccc(C(=O)N/N=C3/CCc4c(F)ccc(O)c43)c2)CC1 . Its measured IC50 is 0.403

Consider CC1CC(=NNC(=O)c2cccc(S(=O)(=O)N3CCOCC3)c2)c2c(O)ccc(Cl)c21 (stereo in doubt) . Its measured IC50 is 0.418

Consider CC1C/C(=N\NC(=O)c2cccc(S(=O)(=O)N3CCOCC3)c2)c2c(O)ccc(Cl)c21 (centres unmarked) . Its measured IC50 is 0.078

Consider Cc1ccc(Cl)c2c1/C(=N/NC(=O)c1cccc(S(=O)(=O)N3CCN(C)CC3)c1)CC2 . Its measured IC50 is 30.4
